Examples of compounds with documented % assay/degs follow.
Format: physicochemical
TEST_SETTINGS: pH 4.0; T = 0
The answer should read as a number with its unit following.

Example results:
[[record]]
compound = "CCC(CC)COC(=O)[C@H](C)N[P@](=O)(OC[C@H]1O[C@@](C#N)(c2ccc3c(N)ncnn23)[C@H](O)[C@@H]1O)Oc1ccccc1 [Formula Ia]"
result = "98.6%"

[[record]]
compound = "CCC(CC)COC(=O)[C@H](C)N[P@](=O)(OC[C@H]1O[C@@](C(N)=O)(c2ccc3c(N)ncnn23)[C@H](O)[C@@H]1O)Oc1ccccc1 [Compound G]"
result = "0.06%"

[[record]]
compound = "N#C[C@@]1(c2ccc3c(N)ncnn23)O[C@H](CO)[C@@H](O)[C@H]1O [Compound A]"
result = "0.02%"


Field request: % assay/degs | item: N#C[C@@]1(c2ccc3c(N)ncnn23)O[C@H](COP(=O)(O)Oc2ccccc2)[C@@H](O)[C@H]1O [Compound F]
0.02%

====

ASSAY_COMMENT: in vivo
Set-up: species or system African Green Monkeys
TEST_SETTINGS: monkey, iv, 10 mg/kg
MEASURED_PARAMETER: AUC(0-t) (µM·h)
Dear colleague, please return just the value in µM·h, with no unit written.

Dear colleague, I am looking for the recorded AUC(0-t) of the following molecule: `CCC(CC)COC(=O)[C@H](C)N[P@](=O)(OC[C@H]1O[C@@](C#N)(c2ccc3c(N)ncnn23)[C@H](O)[C@@H]1O)Oc1ccccc1`
7.26

====

Format: physicochemical
TEST_SETTINGS: pH 4.0; 2-8° C.; 24 h
MEASURED_PARAMETER: % assay/degs, difference from T = 0 (%)
Just the number in %, nothing appended.

[[record]]
chemical_string = "N#C[C@@]1(c2ccc3c(N)ncnn23)O[C@H](COP(=O)(O)Oc2ccccc2)[C@@H](O)[C@H]1O"
measured_parameter = "% assay/degs, difference from T = 0"
number = 0.00

[[record]]
chemical_string = "CCC(CC)COC(=O)[C@H](C)N[P@](=O)(OC[C@H]1O[C@@](C#N)(c2ccc3c(N)ncnn23)[C@H](O)[C@@H]1O)Oc1ccccc1"
measured_parameter = "% assay/degs, difference from T = 0"
number = 0.3

[[record]]
chemical_string = "CCC(CC)COC(=O)[C@H](C)N[P@](=O)(OC[C@H]1O[C@@](C(N)=O)(c2ccc3c(N)ncnn23)[C@H](O)[C@@H]1O)Oc1ccccc1"
measured_parameter = "% assay/degs, difference from T = 0"
number = 0.00


GET /values?readout=% assay/degs, difference from T = 0&item= `N#C[C@@]1(c2ccc3c(N)ncnn23)O[C@H](CO)[C@@H](O)[C@H]1O`
0.00

====

Type: physicochemical
TEST_SETTINGS: pH 3.5; 2-8° C.; 8 h
MEASURED_PARAMETER: % assay/degs, difference from T = 0 (%)
The reply should contain only the number, in %.

Here are 3 compounds together with their reported answers.
[[record]]
chemical_string = "CCC(CC)COC(=O)[C@H](C)N[P@](=O)(OC[C@H]1O[C@@](C(N)=O)(c2ccc3c(N)ncnn23)[C@H](O)[C@@H]1O)Oc1ccccc1"
number = 0.00

[[record]]
chemical_string = "CCC(CC)COC(=O)[C@H](C)N[P@](=O)(OC[C@H]1O[C@@](C#N)(c2ccc3c(N)ncnn23)[C@H](O)[C@@H]1O)Oc1ccccc1"
number = 0.3

[[record]]
chemical_string = "N#C[C@@]1(c2ccc3c(N)ncnn23)O[C@H](COP(=O)(O)Oc2ccccc2)[C@@H](O)[C@H]1O"
number = 0.00


Consider the additional compound presented here.
Quick check: % assay/degs, difference from T = 0 of `N#C[C@@]1(c2ccc3c(N)ncnn23)O[C@H](CO)[C@@H](O)[C@H]1O` ?
0.00

====

ASSAY_COMMENT: in vivo
TEST_SETTINGS: both, monkey, inhaled or intranasal, 0.168 mg/kg
MEASURED_PARAMETER: AUC(0-t) (µM·h)
Report the figure in µM·h without appending any unit label.

Item under review: `CCC(CC)COC(=O)[C@H](C)N[P@](=O)(OC[C@H]1O[C@@](C#N)(c2ccc3c(N)ncnn23)[C@H](O)[C@@H]1O)Oc1ccccc1` . Reported AUC(0-t)?
0.023

====

Format: physicochemical
TEST_SETTINGS: pH 3.5; 2-8° C.; 24 h
MEASURED_PARAMETER: % assay/degs, difference from T = 0
Provide a numeric answer, followed by its unit.

Example compounds with recorded % assay/degs, difference from T = 0:
[[record]]
chemical_string = "CCC(CC)COC(=O)[C@H](C)N[P@](=O)(OC[C@H]1O[C@@](C(N)=O)(c2ccc3c(N)ncnn23)[C@H](O)[C@@H]1O)Oc1ccccc1"
result = "0.00%"

[[record]]
chemical_string = "N#C[C@@]1(c2ccc3c(N)ncnn23)O[C@H](CO)[C@@H](O)[C@H]1O"
result = "0.00%"

[[record]]
chemical_string = "CCC(CC)COC(=O)[C@H](C)N[P@](=O)(OC[C@H]1O[C@@](C#N)(c2ccc3c(N)ncnn23)[C@H](O)[C@@H]1O)Oc1ccccc1"
result = "0.7%"


// next entry
# get_value(readout='% assay/degs, difference from T = 0', item= `N#C[C@@]1(c2ccc3c(N)ncnn23)O[C@H](COP(=O)(O)Oc2ccccc2)[C@@H](O)[C@H]1O` )
0.00%

====

ASSAY_COMMENT: Plasma PK of Formula Ia and metabolites after inhalation in African Green Monkeys
TEST_SETTINGS: both, monkey, in vivo, 0.536 mg/kg
MEASURED_PARAMETER: concentration at 4 h (nM)
Note: unit nM is implicit; provide only the numeric part.

Requested read-out: concentration at 4 h. Entry: `N#C[C@@]1(c2ccc3c(N)ncnn23)O[C@H](CO)[C@@H](O)[C@H]1O`
43

====

Type: physicochemical
TEST_SETTINGS: pH 2.0; 2-8° C.; 8 h
Items are presented alongside their recorded % assay/degs, difference from T = 0.
Respond with the bare value in %.

Using the record for `CCC(CC)COC(=O)[C@H](C)N[P@](=O)(OC[C@H]1O[C@@](C(N)=O)(c2ccc3c(N)ncnn23)[C@H](O)[C@@H]1O)Oc1ccccc1` , report its % assay/degs, difference from T = 0.
0.00

====

The following compounds are listed with their measured % assay/degs, difference from T = 0 values.
Format: physicochemical
TEST_SETTINGS: pH 2.0; 2-8° C.; 48 h
Give the value, in units of %, as a plain number.

[[record]]
compound = "N#C[C@@]1(c2ccc3c(N)ncnn23)O[C@H](CO)[C@@H](O)[C@H]1O [Compound A]"
measured_parameter = "% assay/degs, difference from T = 0"
number = 0.01

[[record]]
compound = "CCC(CC)COC(=O)[C@H](C)N[P@](=O)(OC[C@H]1O[C@@](C#N)(c2ccc3c(N)ncnn23)[C@H](O)[C@@H]1O)Oc1ccccc1 [Formula Ia]"
measured_parameter = "% assay/degs, difference from T = 0"
number = "−0.5"

[[record]]
compound = "N#C[C@@]1(c2ccc3c(N)ncnn23)O[C@H](COP(=O)(O)Oc2ccccc2)[C@@H](O)[C@H]1O [Compound F]"
measured_parameter = "% assay/degs, difference from T = 0"
number = 0.25


For CCC(CC)COC(=O)[C@H](C)N[P@](=O)(OC[C@H]1O[C@@](C(N)=O)(c2ccc3c(N)ncnn23)[C@H](O)[C@@H]1O)Oc1ccccc1 [Compound G] , what is its reported % assay/degs, difference from T = 0?
0.00

====

Type: physicochemical
TEST_SETTINGS: pH 3.8; Ambient; 168 h
The following compounds are listed with their measured % assay/degs, difference from T = 0 values.
Just the number please, in %, no unit attached.

[[record]]
chemical_string = "N#C[C@@]1(c2ccc3c(N)ncnn23)O[C@H](CO)[C@@H](O)[C@H]1O"
number = 0.00


Can you look up the measured % assay/degs, difference from T = 0 of `CCC(CC)COC(=O)[C@H](C)N[P@](=O)(OC[C@H]1O[C@@](C(N)=O)(c2ccc3c(N)ncnn23)[C@H](O)[C@@H]1O)Oc1ccccc1` for me?
0.00

Entry `CCC(CC)COC(=O)[C@H](C)N[P@](=O)(OC[C@H]1O[C@@](C#N)(c2ccc3c(N)ncnn23)[C@H](O)[C@@H]1O)Oc1ccccc1` please
0.0

Can you check `N#C[C@@]1(c2ccc3c(N)ncnn23)O[C@H](COP(=O)(O)Oc2ccccc2)[C@@H](O)[C@H]1O` next?
0.10

====

Assay type: physicochemical
TEST_SETTINGS: pH 2.0; Ambient; 24 h
// reported % assay/degs, difference from T = 0 for each item listed
Number in %, nothing else.

Entry `CCC(CC)COC(=O)[C@H](C)N[P@](=O)(OC[C@H]1O[C@@](C#N)(c2ccc3c(N)ncnn23)[C@H](O)[C@@H]1O)Oc1ccccc1` has what % assay/degs, difference from T = 0?
−0.6

Follow-up item: `N#C[C@@]1(c2ccc3c(N)ncnn23)O[C@H](CO)[C@@H](O)[C@H]1O`
0.03

What do you get for `CCC(CC)COC(=O)[C@H](C)N[P@](=O)(OC[C@H]1O[C@@](C(N)=O)(c2ccc3c(N)ncnn23)[C@H](O)[C@@H]1O)Oc1ccccc1` ?
0.00

Then this compound: `N#C[C@@]1(c2ccc3c(N)ncnn23)O[C@H](COP(=O)(O)Oc2ccccc2)[C@@H](O)[C@H]1O`
0.68
